B1: library; a variant is named by its letters at N, in order (parent)
chain: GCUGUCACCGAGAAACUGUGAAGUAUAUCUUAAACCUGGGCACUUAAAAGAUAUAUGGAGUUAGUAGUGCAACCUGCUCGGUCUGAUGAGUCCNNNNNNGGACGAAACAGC

Variants of: B1
assay-name: FACS-Seq fitted mean relative fluorescence mCherry/BFP with ligand (log10 relative fluorescence); HEK293T; ligand: cyclic di-GMP (c-di-GMP-II aptamer); ligand concentration (+) FACS-Seq: 1 mM; higher = higher reporter protein expression
assay-conditions: ligand present: yes
quantity-kind: FACS-Seq fitted mean (log10)
Number only, no unit.

[[record]]
mut = "CAUUAA"
quantity_kind = "FACS-Seq fitted mean (log10)"
numeric_result = -0.316

[[record]]
mut = "CUCUUA"
quantity_kind = "FACS-Seq fitted mean (log10)"
numeric_result = -0.0535

[[record]]
mut = "AGGGAG"
quantity_kind = "FACS-Seq fitted mean (log10)"
numeric_result = -0.378

[[record]]
mut = "ACUGGG"
quantity_kind = "FACS-Seq fitted mean (log10)"
numeric_result = -0.104

[[record]]
mut = "AAAUGA"
quantity_kind = "FACS-Seq fitted mean (log10)"
numeric_result = -0.289

[[record]]
mut = "CGGCAC"
quantity_kind = "FACS-Seq fitted mean (log10)"
numeric_result = 0.073


Quick one: FACS-Seq fitted mean (log10) for UCCAGA ? 0.0947
